System: 349418-098-R-PDC complex spheroid viability
Assay: Anticancer human tumor 349418-098-R-PDC patient-derived lung adenocarcinoma cell line growth inhibition [RAS]
Details: second compound 0.0316 µM; first compound 0.000949 µM; stronger effect = lower value
From the text: RAS pathway inhibitors in Combinations in Complex Spheroids A high-throughput screen of multi-cell type tumor spheroids was designed to identify active combinations of RAS pathway inhibitors and targeted small molecules. Complex spheroids include a stromal component modeled by human endothelial cells (HUVEC) and fibroblasts modeled by human mesenchymal stem cells (MSCs). […] Compounds. […] If the clinical Cmax for an agent had not been determined, the highest concentration tested was 10 microM. […]
Below, each entry is listed alongside its reported viability, T/C.
// return numeric value only (unit: %, not printed)

molecule	system-name	viability, T/C / %
CCc1c2c(nc3ccc(O)cc13)-c1cc3c(c(=O)n1C2)COC(=O)[C@]3(O)CC + C#Cc1c(F)ccc2cc(O)cc(-c3ncc4c(N5CC6CCC(C5)N6)nc(OCC56CCCN5CC(F)C6)nc4c3F)c12	349418-098-R-PDC complex spheroid viability	58.9
CC1(C)CCC(Nc2ncc(C(F)(F)F)c(-c3c[nH]c4c(P(C)(C)=O)c(C#N)ccc34)n2)CN1 (centres undefined) + C#Cc1c(F)ccc2cc(O)cc(-c3ncc4c(N5CC6CCC(C5)N6)nc(OCC56CCCN5CC(F)C6)nc4c3F)c12	349418-098-R-PDC complex spheroid viability	54.5
CCc1c2c(nc3ccc(O)cc13)-c1cc3c(c(=O)n1C2)COC(=O)[C@]3(O)CC + C=CC(=O)N1CCN(c2nc(OCC3CCCN3C)nc3c(F)c(-c4nc(N)cc(C)c4C(F)(F)F)c(Cl)cc23)C(C)C1	349418-098-R-PDC complex spheroid viability	70.9

Moving on to another molecule below.
Lookup result for CC1(C)CCC(Nc2ncc(C(F)(F)F)c(-c3c[nH]c4c(P(C)(C)=O)c(C#N)ccc34)n2)CN1 (centres undefined) + C=CC(=O)N1CCN(c2nc(OCC3CCCN3C)nc3c(F)c(-c4nc(N)cc(C)c4C(F)(F)F)c(Cl)cc23)C(C)C1 ; measured viability, T/C: 44

* * *

System: 349418-098-R-PDC complex spheroid viability
Assay: Anticancer human tumor 349418-098-R-PDC cell line growth inhibition [RAS]; active means viability on the fitted dose curve at most 10% of control; inactive means the rest;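 note: spheroids exposed to compound for seven days before viability readout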
Settings: second compound 0.316 µM; first compound 0.01 µM
Source text: RAS pathway inhibitors in Combinations in Complex Spheroids A high-throughput screen of multi-cell type tumor spheroids was designed to identify active combinations of RAS pathway inhibitors and targeted small molecules. Complex spheroids include a stromal component modeled by human endothelial cells (HUVEC) and fibroblasts modeled by human mesenchymal stem cells (MSCs). […] Compounds. […] If the clinical Cmax for an agent had not been determined, the highest concentration tested was 10 microM. […]
Log the outcome using a class from active, inactive

compound	label-value
CC(C)n1nc(-c2ccc3oc(N)nc3c2)c2c(N)ncnc21 + C#Cc1c(F)ccc2cc(O)cc(-c3ncc4c(N5CC6CCC(C5)N6)nc(OCC56CCCN5CC(F)C6)nc4c3F)c12	inactive
O=C(c1ccc(F)c(F)c1Nc1ccc(I)cc1F)N1CC(O)([C@@H]2CCCCN2)C1 + C=CC(=O)N1CCN(c2nc(OCC3CCCN3C)nc3c(F)c(-c4nc(N)cc(C)c4C(F)(F)F)c(Cl)cc23)C(C)C1	inactive
CCN1CCN(Cc2ccc(Nc3ncc(F)c(-c4cc(F)c5nc(C)n(C(C)C)c5c4)n3)nc2)CC1 + C#Cc1c(F)ccc2cc(O)cc(-c3ncc4c(N5CC6CCC(C5)N6)nc(OCC56CCCN5CC(F)C6)nc4c3F)c12	inactive
CC(C)n1nc(-c2ccc3oc(N)nc3c2)c2c(N)ncnc21 + C=CC(=O)N1CCN(c2nc(OCC3CCCN3C)nc3c(F)c(-c4nc(N)cc(C)c4C(F)(F)F)c(Cl)cc23)C(C)C1	active

Assay result, entry C=CC(=O)Nc1cc(Nc2nccc(-c3cn(C)c4ccccc34)n2)c(OC)cc1N(C)CCN(C)C + C=CC(=O)N1CCN(c2nc(OCC3CCCN3C)nc3c(F)c(-c4nc(N)cc(C)c4C(F)(F)F)c(Cl)cc23)C(C)C1 — outcome?
inactive

Recorded test call requested for O=C(c1ccc(F)c(F)c1Nc1ccc(I)cc1F)N1CC(O)([C@@H]2CCCCN2)C1 + C#Cc1c(F)ccc2cc(O)cc(-c3ncc4c(N5CC6CCC(C5)N6)nc(OCC56CCCN5CC(F)C6)nc4c3F)c12
inactive
